Values from patent US8304412B2

experimental-system: adenosine A2b receptor (Homo sapiens)
Sequence (P29275 whole entry): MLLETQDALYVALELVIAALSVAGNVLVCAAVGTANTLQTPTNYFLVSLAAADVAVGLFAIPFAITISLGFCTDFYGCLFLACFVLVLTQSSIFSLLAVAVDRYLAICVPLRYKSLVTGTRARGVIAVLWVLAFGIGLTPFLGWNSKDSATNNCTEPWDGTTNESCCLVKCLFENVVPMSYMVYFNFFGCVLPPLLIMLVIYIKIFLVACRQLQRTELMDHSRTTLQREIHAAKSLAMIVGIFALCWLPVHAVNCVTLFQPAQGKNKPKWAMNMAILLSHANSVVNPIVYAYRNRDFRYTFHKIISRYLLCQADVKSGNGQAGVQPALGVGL
experimental-protocol: Indirect determination of adenosine agonism by gene expression (luciferase), A2b cells
condition-parameters: stably transfected CHO cells; 50% of maximum luciferase stimulation
Source text: B-1. Indirect Determination of the Adenosine Agonism by Way of Gene Expression Cells of the CHO (Chinese Hamster Ovary) permanent cell line are transfected stably with the cDNA for the adenosine receptor subtypes A1, A2a and A2b. The adenosine A1 receptors are coupled to the adenylate cyclase by way of Gi proteins, while the adenosine A2a and A2b receptors are coupled by way of Gs proteins. In correspondence with this, the formation of cAMP in the cell is inhibited or stimulated, respectively. […]
endpoint-label: EC50 (nM)

A = N#Cc1c(N)nc(SCc2csc(-c3ccc(Cl)cc3)n2)c(C#N)c1[C@H]1CC[C@@H](O)CC1 [Example 4]
B = N#Cc1c(N)nc(SCc2csc(-c3ccc(Cl)cc3)n2)c(C#N)c1C1CCN(C(=O)CO)CC1 [Example 9]
Data request: Parameter check: reported EC50 is higher for which label, A or B ? Select an item and report its label.
Data returned: B
(B: 791 nM, A: 320 nM)

a = N#Cc1c(N)nc(SCc2cccc(C(N)=O)c2)c(C#N)c1C1CCCCC1 [Example 70]
b = N#Cc1cnc(SCc2csc(-c3ccc(C(=O)O)cc3)n2)c(C#N)c1C1CCCOC1 (racemic) [Example 65]
c = N#Cc1c(N)nc(SCc2csc(-c3ccc(Cl)cc3)n2)c(C#N)c1C1CCCCC1 [Example 29]
Data request: Order the records, beginning with the lowest EC50 and ending with the highest. Please write the labels in the order that was asked for.
Data returned: a, c, b
(a: 22 nM, c: 345 nM, b: 860 nM)
